# Tested on: HOP-62 NSCLC
# experimental.protocol: NCI tumour cell line growth inhibition, 48 h; in the data active means GI50 below about 0.43 µM; inactive means the rest
Log the outcome using a class from class 1 = active, class 0 = inactive

Solved entries:
>>> assigned_label("O=C(Nc1ccc2[nH]c(=S)sc2c1)Nc1ccccc1F")
"class 0"
>>> assigned_label("Cc1ccc2c(c1)C(C)Cc1c(Cl)ncnc1N2C (centres undefined)")
"class 0"
>>> assigned_label("CC[C@@]1(OC(=O)CN)C(=O)OCc2c1cc1n(c2=O)Cc2cc3c(N)cccc3nc2-1")
"class 1"
>>> assigned_label("COc1ccc(NC(=O)COCCOCCNC[C@@H]2C(=O)O[C@H]3[C@H]2CC/C(COC(=O)OC/C2=C/CC[C@@]4(C)O[C@H]4[C@H]4OC(=O)[C@@H](CN(C)C)[C@@H]4CC2)=C\\CC[C@@]2(C)O[C@@H]32)c(O)c1C(N)=O")
"class 0"

Hi, sorry to bother you, what did the test record for Nc1nc(N)c2c(n1)NC(c1ccc(F)cc1)C1CCc3ccccc3C1=N2 (centres undefined) ?
class 0

Another compound to check: Oc1ccccc1C=Nc1nc(SCc2ccccc2)nc2[nH]ncc12
class 0

* * *

Documented TGI across a set of molecules
# System: RPMI-8226 leukemia
# experimental.protocol: NCI tumour cell line growth inhibition, 48 h

Please review the entries below; each comes with its answer.
>>> recorded_value("COC(=O)[C@]12CC=C3O[C@@H]4OC5(CCCCC5)O[C@@H]4C3[C@@H]1C(=O)CCC2=O (some centres undefined)")
"> 100 µM"
>>> recorded_value("Cc1ccc(C(=O)Nc2ccc(CP(=O)(O)O)cc2CP(=O)(O)O)cc1NC(=O)c1cccc(NC(=O)Nc2cccc(C(=O)Nc3cc(C(=O)Nc4ccc(CP(=O)(O)O)cc4CP(=O)(O)O)ccc3C)c2)c1")
"> 100 µM"
>>> recorded_value("CN(C)CCCN1c2ccccc2C(C)(C)c2ccccc21")
"28.5 µM"
>>> recorded_value("COc1ccc(/C=C2\\N=C(SC)N(CN3CCCCC3)C2=O)cc1")
"> 100 µM"
>>> recorded_value("COC(=O)C(Cc1ccc(Oc2cc(CC(NC(=O)c3ccccc3)C(=O)OC)ccc2OC)cc1)NC(=O)c1ccccc1 (centres undefined)")
"> 69.3 µM"

If you can, please state the reported TGI value of O=S(Nc1ccccc1)c1ccc(Cl)c(Cl)c1 (centres undefined) .
> 100 µM

// next record N#CC1=C(N)Oc2c(sc3c(Br)cccc23)C1c1ccc(Br)cc1 (centres undefined)
16 µM

Quick one: Cc1ccc(NC(=O)C(=O)CC(=O)c2c(C)n([O-])c3ccccc3[n+]2=O)cc1
58.6 µM

Then this molecule: COc1cc(-n2cc(-c3ccc(Cl)cc3)nc2SCc2cccc(C#N)c2)cc(OC)c1OC
> 100 µM

* * *

# Tested on: DU-145 prostate
# experimental.protocol: NCI tumour cell line growth inhibition, 48 h
The molecules listed here are annotated with their GI50.

// below: answered molecules
>>> recorded_value("COC(=O)C1CCCN1C(=O)[C@@H]1CCCN1C(=O)[C@H](Cc1c[nH]c2ccccc12)NC(=S)Nc1cc(C(F)(F)F)cc(C(F)(F)F)c1 (stereo partly drawn)")
"2520 nM"
>>> recorded_value("CNC(=O)CC1NC(=O)c2csc(n2)-c2ccc(-c3nc(C4=NC(C(=O)N5CCCC5C(N)=O)CO4)cs3)nc2-c2csc(n2)-c2csc(n2)C(C(C)C)NC(=O)CNC(=O)c2csc(n2)C(C(C)C)NC(=O)c2nc1sc2C (stereo not drawn)")
"> 25000 nM"
>>> recorded_value("S=c1ssc(Oc2ccccc2)c1Cl")
"14500 nM"
>>> recorded_value("Cc1cc2[nH]c(=O)c3c4ccccc4cn3c2cc1C")
"13900 nM"

Give its GI50 value. Item: CCCCCCCCCCCCOC1C(C(COC2OC(C3COC(C)(C)O3)C3OC(C)(C)OC23)NC(=O)NS(=O)(=O)c2ccccc2)OC2OC(C)(C)OC21 (stereo not drawn)
2740 nM

What do we get for COc1cc(/C=N/NC(=O)c2cnn3c2NC(c2ccccc2)C3)ccc1Oc1ccccc1 (stereo not drawn) ?
1420 nM

How about COc1cc2c(cc1OCCCCCOc1ccc(-n3c(C)nc4ccccc4c3=O)cc1)N=C[C@@H]1CCCN1C2=O ?
410 nM

Please answer likewise for C=C(C)[C@@H]1CC[C@]2(C)[C@H](CC=C3[C@@H]4[C@@H](C)[C@H](C)CC[C@]4(C(N)=O)CC[C@]32C)[C@@]1(C)CCC#N
4410 nM

Repeat for the following molecule: CC(C)COCC(CN(Cc1ccccc1)c1ccccc1)N1CCCC1 (stereo not drawn)
3760 nM

* * *

# Test system: SK-MEL-28 melanoma
# experimental.protocol: NCI tumour cell line growth inhibition, 48 h
readout.type: TGI

Completed entries (count: 5):
>>> recorded_value("COC(=O)C1CCCN1C(=O)[C@@H]1CCCN1C(=O)[C@H](Cc1c[nH]c2ccccc12)NC(=S)Nc1cc(C(F)(F)F)cc(C(F)(F)F)c1 (some centres undefined)")
"10.7 µM"
>>> recorded_value("C1CSC(=[N+]2CC[N+](=C3SCCS3)CC2)S1")
"> 100 µM"
>>> recorded_value("O=C(O)c1cc(-c2ccncc2)nc2ccccc12")
"> 100 µM"
>>> recorded_value("C[C@]12CCC(=O)C(O)=C1CC[C@@H]1C2CC[C@]2(C)Nc3c(cnn3-c3ccccc3)CC12 (some centres undefined)")
"> 100 µM"
>>> recorded_value("Nc1ncnc2c1ncn2C1OC(CO)C(O)C(O)C1O (centres undefined)")
"> 100 µM"

Observed TGI on SK-MEL-28 melanoma for O=C1C2C(c3ccccc3)NC(c3ccccc3)C1C(c1ccccc1)NC2c1ccccc1 (centres undefined) , please.
> 100 µM

Moving on to CC[C@@]1(OC(=O)CN)C(=O)OCc2c1cc1n(c2=O)Cc2cc3c(N)cccc3nc2-1
> 20.1 µM

Same again, this time with CC(C)c1c(O)ccc2c1CCC1C(C)(C)CCCC21C (centres undefined)
38.1 µM

Here is the next compound: O=C1C=CC2(O)OCCN(CCO)C2=C1 (centres undefined) (tested in a mixture with another compound)
> 100 µM

* * *

# System: RPMI-8226 leukemia
# experimental.protocol: NCI tumour cell line growth inhibition, 48 h
Label scheme for TGI: lower than 30 µM is class 0, 30 µM and above is class 1.

Example results:
>>> assigned_label("COc1cc(/C=N/NC(=O)c2cnn3c2NC(c2ccccc2)C3)ccc1Oc1ccccc1 (centres undefined)")
"class 1"
>>> assigned_label("Cc1ccc2c(c1)C(C)Cc1c(Cl)ncnc1N2C (centres undefined)")
"class 0"
>>> assigned_label("CC1=NN(C(=O)CC(=O)Nc2ccc(C)cc2)C(=O)C1N=Nc1ccc(S(=O)(=O)c2ccc(N=NC3C(=O)N(C(=O)CC(=O)Nc4ccc(C)cc4)N=C3C)cc2)cc1 (centres undefined)")
"class 1"
>>> assigned_label("O=S(=O)(c1cccc2c(Cl)cccc12)N1CCCNCC1")
"class 1"
>>> assigned_label("O=C(O)C1C(C(=O)O)C23CC2(C(=O)O)C2(C(=O)O)CCC3=C3CCCC312 (centres undefined)")
"class 1"

Confirm if TGI reported for the compound Cc1c(F)c(N)c2c(=O)cc(-c3ccc(N)c(F)c3)oc2c1F is 30 µM or above.
class 1

Further, for COc1ccc(S(=O)(=O)Nc2cc(/C=C\c3cc(OC)c(OC)c(OC)c3)ccc2OC)cc1 ?
class 0

* * *

# System: ACHN renal
# experimental.protocol: NCI tumour cell line growth inhibition, 48 h
readout.type: TGI

>>> recorded_value("O=C(O)c1cc(-c2ccncc2)nc2ccccc12")
"> 100 µM"
>>> recorded_value("Fc1ccccc1C1SCc2nc3ccccc3n21 (stereo not drawn)")
"> 100 µM"
>>> recorded_value("CCN(C(C)=O)c1cnc(/C=N/NC(N)=S)c2ccccc12")
"> 22.4 µM"
>>> recorded_value("CCOc1cc2c(cc1O)CC[C@@H]1[C@@H]2CC[C@]2(C)C(N)CC[C@@H]12 (stereo partly drawn)")
"26.2 µM"
>>> recorded_value("Cc1ccc([N+](=O)[O-])cc1NC(=O)c1cccc([N+](=O)[O-])c1O")
"95.9 µM"

Bench note: what TGI did Nc1nc2n[nH]nc2c(=O)[nH]1 show?
> 59.7 µM

For OC(c1cc(-c2ccc(Cl)cc2)nc2ccccc12)C1CCCCN1 (stereo not drawn) then?
4.1 µM

* * *

# Tested on: CAKI-1 renal
# experimental.protocol: NCI tumour cell line growth inhibition, 48 h
# TGI annotations

Quick one: TGI of CCN(C(C)=O)c1cnc(/C=N/NC(N)=S)c2ccccc12 ?
> 51.9 µM

Repeat for the following molecule: COc1cc(NC(=O)CSc2nc3ccc(C)cc3c(=O)n2Cc2ccccc2)cc(OC)c1OC
> 100 µM

* * *

Recorded TGI values for a group of compounds are listed next.
# Test system: SW-620 colon
# experimental.protocol: NCI tumour cell line growth inhibition, 48 h

Recorded results for 5 compounds are shown here.
>>> recorded_value("C[C@]12CCC(=O)C(O)=C1CC[C@@H]1C2CC[C@]2(C)Nc3c(cnn3-c3ccccc3)CC12 (stereo partly specified)")
"> 100 µM"
>>> recorded_value("O=c1oc2cc(N=Cc3ccc4c(c3)OCO4)ccc2c2ccccc12")
"> 100 µM"
>>> recorded_value("COc1ccc(/C=C2\\N=C(SC)N(CN3CCCCC3)C2=O)cc1")
"> 100 µM"
>>> recorded_value("Cc1ccc(C(=O)Nc2ccc(CP(=O)(O)O)cc2CP(=O)(O)O)cc1NC(=O)c1cccc(NC(=O)Nc2cccc(C(=O)Nc3cc(C(=O)Nc4ccc(CP(=O)(O)O)cc4CP(=O)(O)O)ccc3C)c2)c1")
"> 100 µM"
>>> recorded_value("COc1ccc(C2=NN(C(N)=S)C(c3ccccc3)C2)cc1 (stereo unspecified)")
"> 100 µM"

Need TGI of CCN(CC)c1c(-c2c(N(CC)CC)c(OC(C)=O)c3sccn3c2=O)c(=O)n2ccsc2c1OC(C)=O , thanks.
> 100 µM

Would you kindly repeat that for Nc1c([N+](=O)[O-])cc2c3c(cccc13)CC2 ?
> 100 µM

// next record CN(Cc1cccc2ccccc12)Cc1cccc2ccccc12
57.9 µM
